# system.name: UniProtKB Q8NET8
# assay.details: Whole-cell patch clamp, hTRPV3 Phase 1 / Phase 2 currents
# Type: cell-based
# applied.conditions: Phase 1 current, human TRPV3; read-out: hTRPV3 (nM) Phase 1
Counter-ions that a name gives are not always drawn.
Returns: string. Value is 1 if measured IC50 is below 60 nM, and -1 if it is greater than or equal to it.

Record excerpt, results attached:
>  <compound>
CC(C)c1ccccc1Oc1ccc(C2CCN(Cc3cccc(Cl)n3)C2)c(CO)c1 (stereo not shown) [Compound 2-96, hydrochloride]

>  <class.assignment>
-1

$$$$
>  <compound>
CCc1ccccc1-c1ccc(C2CCN(C(=O)C3CCN(C)CC3)C2)c(CO)c1 (stereo not shown) [Compound 2-115]

>  <class.assignment>
-1

$$$$
>  <compound>
Cc1cccc(CN2CC(c3ccc(Oc4ccccc4C(C)C)cc3C(N)=O)CC2=O)n1 (stereo not shown) [Compound 2-97]

>  <class.assignment>
-1

$$$$
>  <compound>
CCc1cc(C)ccc1-c1ccc(C2CCN(C(=O)c3ccc(F)cn3)C2)c(CO)c1 (stereo not shown) [Compound 2-62]

>  <class.assignment>
-1

$$$$

Answer whether the compound CC(C)c1ccccc1-c1ccc(C2CCN(C(=O)c3ncccc3Cl)C2)c(C(N)=O)c1 (stereo not shown) [Compound 2-41] has IC50 strictly less than 60 nM
-1

How about this compound: CCc1cc(C)ccc1-c1ccc(C2CCN(C(=O)c3ccc(Cl)cn3)C2)c(CO)c1 (stereo not shown) [Compound 2-66]
1

How about this compound: COc1ccnc(C(=O)N2CCC(c3ccc(-c4ccccc4C4CC4)cc3CO)C2)c1 (stereo not shown) [Compound 2-75]
-1

How about this compound: O=C(c1ccc(C(F)(F)F)cn1)N1CCC(c2ccc(-c3ccccc3C3CC3)cc2CO)C1 (stereo not shown) [Compound 2-58]
1

How about this compound: O=C(c1csc(Cl)n1)N1CCC(c2ccc(-c3ccccc3C3CC3)cc2CO)C1 (stereo not shown) [Compound 2-124]
1

How about this compound: CC(C)c1ccccc1Oc1ccc(C2CC(=O)N(Cc3ccccn3)C2)c(C(N)=O)c1 (stereo not shown) [Compound 2-99]
-1

---

log10 IC50 overview
# system.name: hTRPV3 (Homo sapiens (Human))
# assay.details: Whole-cell patch clamp, hTRPV3 Phase 1 / Phase 2 currents
# Assay type: cell-based
# applied.conditions: Phase 1 current, human TRPV3; read-out: hTRPV3 (nM) Phase 1
Values reflect log10 of reported IC50 (nM).

>  <molecule>
CC(C)c1ccccc1Oc1ccc(C2CCN(C(=O)c3ccc(C(F)(F)F)cn3)C2)c(CO)c1 (centres unmarked) [Compound 2-21]

>  <log10 IC50>
1.99

$$$$
>  <molecule>
O=C(c1cc[nH]n1)N1CCC(c2ccc(-c3ccccc3C3CC3)cc2CO)C1 (centres unmarked) [Compound 2-112]

>  <log10 IC50>
1.99

$$$$
>  <molecule>
COc1ccc(C(=O)N2CCC(c3ccc(-c4ccccc4C4CC4)cc3CO)C2)nc1 (centres unmarked) [Compound 2-76]

>  <log10 IC50>
1.85

$$$$
>  <molecule>
CC(C)c1ccccc1Oc1ccc(C2CCN(C(=O)c3ccccn3)C2)c(C(N)=O)c1 (centres unmarked) [Compound 2-31]

>  <log10 IC50>
3.14

$$$$
>  <molecule>
CC(C)c1ccccc1Oc1ccc(C2CCN(C(=O)c3ncccc3Cl)C2)c(CO)c1 (centres unmarked) [Compound 2-12]

>  <log10 IC50>
2.00

$$$$
>  <molecule>
CCc1ccccc1-c1ccc(C2CCN(C(=O)c3cc(OC)ccn3)C2)c(CO)c1 (centres unmarked) [Compound 2-63]

>  <log10 IC50>
2.37

$$$$

Return reported log10 IC50; argument: CCc1ccccc1-c1ccc(C2CCN(C(=O)c3cc(Cl)ccn3)C2)c(CO)c1 (centres unmarked) [Compound 2-48]
1.84

How about this molecule: CCc1ccccc1-c1ccc(C2CCN(C(=O)c3cccc(Cl)n3)C2)c(CO)c1 (centres unmarked) [Compound 2-53]
0.92

---

# system.name: hTRPV3 (Homo sapiens (Human))
# assay.details: Whole-cell patch clamp, hTRPV3 Phase 1 / Phase 2 currents
# Format: cell-based
# applied.conditions: Phase 1 current, inward, whole-cell patch clamp; read-out: hTRPV3 Patch P1 Inwd
parameter: IC50

Return reported IC50; argument: N#Cc1cc(Br)ccc1N1CC[C@H](Oc2ncccc2Cl)C1
> 1000 nM

How about this compound: Cc1cccnc1-c1ccc(N2CC[C@H](Oc3ccc(C(F)(F)F)cn3)C2)c(CO)c1
100 to 1000 nM

How about this compound: COCc1ccccc1Oc1ccc(N2CC[C@H](Oc3ccccn3)C2)c(CCO)c1
> 1000 nM

How about this compound: FC(F)(F)c1ccc(O[C@@H]2CCN(c3ccccc3OC3CCCC3)C2)nc1
> 1000 nM

How about this compound: Cc1ccc(O[C@H]2CCN(c3ccc(-c4ncccc4C)cc3CO)C2)nc1
> 1000 nM

How about this compound: Cc1ccc(C(=O)c2ccc(N3CC[C@H](Oc4ncccc4Cl)C3)c(CO)c2)cc1
10 to 100 nM

---

log10 of IC50 overview
# system.name: human hERG channels (Homo sapiens (Human), UniProt Q12809)
# Sequence (Q12809 whole entry): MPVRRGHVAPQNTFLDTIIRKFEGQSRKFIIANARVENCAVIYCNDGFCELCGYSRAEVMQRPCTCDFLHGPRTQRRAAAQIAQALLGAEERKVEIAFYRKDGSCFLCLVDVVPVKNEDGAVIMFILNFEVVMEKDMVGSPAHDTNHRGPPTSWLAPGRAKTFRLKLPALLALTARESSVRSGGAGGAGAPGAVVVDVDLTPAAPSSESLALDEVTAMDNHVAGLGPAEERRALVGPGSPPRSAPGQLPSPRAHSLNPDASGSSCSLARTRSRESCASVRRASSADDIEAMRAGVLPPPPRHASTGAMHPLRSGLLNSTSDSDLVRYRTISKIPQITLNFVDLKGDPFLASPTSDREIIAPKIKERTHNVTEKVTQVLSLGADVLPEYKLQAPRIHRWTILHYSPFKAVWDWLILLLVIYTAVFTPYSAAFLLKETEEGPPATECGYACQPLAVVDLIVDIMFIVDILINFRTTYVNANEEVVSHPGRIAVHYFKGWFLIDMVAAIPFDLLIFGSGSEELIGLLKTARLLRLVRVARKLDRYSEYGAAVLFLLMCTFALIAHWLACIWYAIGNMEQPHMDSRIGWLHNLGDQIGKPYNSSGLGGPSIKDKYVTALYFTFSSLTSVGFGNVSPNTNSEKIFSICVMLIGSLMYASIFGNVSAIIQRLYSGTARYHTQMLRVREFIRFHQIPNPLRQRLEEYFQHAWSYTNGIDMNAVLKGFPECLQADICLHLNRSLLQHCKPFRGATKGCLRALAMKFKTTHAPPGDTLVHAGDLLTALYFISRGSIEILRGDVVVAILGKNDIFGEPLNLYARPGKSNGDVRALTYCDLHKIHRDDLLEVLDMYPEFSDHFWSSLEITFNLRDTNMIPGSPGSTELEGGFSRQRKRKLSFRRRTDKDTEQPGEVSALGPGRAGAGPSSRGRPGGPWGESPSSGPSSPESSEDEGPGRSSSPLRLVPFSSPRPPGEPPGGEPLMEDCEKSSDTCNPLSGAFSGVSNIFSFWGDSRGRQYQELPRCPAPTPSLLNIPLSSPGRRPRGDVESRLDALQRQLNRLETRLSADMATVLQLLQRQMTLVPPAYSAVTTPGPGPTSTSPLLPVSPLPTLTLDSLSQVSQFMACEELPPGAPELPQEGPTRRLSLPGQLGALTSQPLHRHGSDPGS
# assay.details: hERG assay (patch clamp, CHO cells)
# Type: cell-based
# applied.conditions: (PL); read-out: hERG (nM) (PL)
Values reflect log10 of reported IC50 (nM).

Return reported log10 of IC50; argument: CC(C)c1ccccc1-c1ccc(C2CCN(C(=O)c3cc(Cl)ccn3)C2)c(CO)c1 (centres unmarked) [Compound 2-49]
3.84

How about this molecule: CCOc1ccccc1-c1ccc(C2CCN(C(=O)c3ccc(Cl)cn3)C2)c(CO)c1 (centres unmarked) [Compound 2-69]
4.09

How about this molecule: CC(C)c1ccccc1Oc1ccc(C2CCN(Cc3ccccn3)C2)c(CO)c1 (centres unmarked) [Compound 2-87]
2.41

How about this molecule: O=C(c1cnccn1)N1CCC(c2ccc(-c3ccccc3C3CC3)cc2CO)C1 (centres unmarked) [Compound 2-105]
4.07

How about this molecule: CCc1ccccc1-c1ccc(C2CCN(C(=O)c3ccc(C(F)(F)F)cn3)C2)c(CO)c1 (centres unmarked) [Compound 2-47]
4.24

How about this molecule: CCc1c(C)cccc1-c1ccc(C2CCN(C(=O)c3ccc(F)cn3)C2)c(CO)c1 (centres unmarked) [Compound 2-64]
4.00

How about this molecule: CCc1ccccc1-c1ccc(C2CCN(C(=O)c3ccc(F)cn3)C2)c(CO)c1 (centres unmarked) [Compound 2-28]
4.14

How about this molecule: O=C(c1ccc(C(F)(F)F)cn1)N1CCC(c2ccc(-c3ccccc3C3CC3)cc2CO)C1 (centres unmarked) [Compound 2-58]
4.18

---

# system.name: UniProt Q8NET8
# assay.details: Whole-cell patch clamp, hTRPV3 Phase 1 / Phase 2 currents
# Assay type: cell-based
# applied.conditions: Phase 1 current; read-out: hTRPV3 (nM) (Phase 1)
IC50 overview
Value expressed in nM; do not type the unit.

>  <compound>
CCc1ccccc1-c1ccc(N2CC[C@H](Oc3ccc(C(F)(F)F)cn3)C2)c(CO)c1 [Compound 1-149]

>  <measured.number>
34.7

$$$$
>  <compound>
OCc1cc(-c2ccccc2OC(F)(F)F)ccc1N1CC[C@H](Oc2ccc(C(F)(F)F)cn2)C1 [Compound 1-161]

>  <measured.number>
93.4

$$$$
>  <compound>
Cc1cccnc1O[C@H]1CCN(c2ccc(Oc3ccccc3)cc2C(N)=O)C1 [Compound 1-163]

>  <measured.number>
2180

$$$$
>  <compound>
Cc1cccnc1O[C@H]1CCN(c2ccc(-c3ccccc3)cc2C(C)O)C1 (some centres unmarked) [Compound 1-169]

>  <measured.number>
476

$$$$
>  <compound>
COCc1ccccc1Oc1ccc(N2CC[C@H](Oc3ncccc3Cl)C2)c(CCO)c1 [Compound 1-297]

>  <measured.number>
56.6

$$$$

Return reported IC50; argument: NC(=O)c1cc(-c2ccccc2)ccc1N1CC[C@@H](Oc2ccc(C(F)(F)F)cn2)C1 [Compound 1-33]
139

How about this compound: COc1ccccc1Oc1ccc(N2CC[C@H](Oc3ccccn3)C2)c(CO)c1 [Compound 1-339]
521

How about this compound: CCc1ccccc1Oc1ccc(N2CC[C@H](OCc3ncccc3C)C2)c(CO)c1 [Compound 1-398]
187

How about this compound: OCc1cc(-c2ccccc2)ccc1N1CC[C@H](Oc2ccccn2)C1 [Compound 1-274]
241

---

# system.name: hTRPV3 (Homo sapiens (Human), UniProt Q8NET8)
# Sequence (Q8NET8 whole entry): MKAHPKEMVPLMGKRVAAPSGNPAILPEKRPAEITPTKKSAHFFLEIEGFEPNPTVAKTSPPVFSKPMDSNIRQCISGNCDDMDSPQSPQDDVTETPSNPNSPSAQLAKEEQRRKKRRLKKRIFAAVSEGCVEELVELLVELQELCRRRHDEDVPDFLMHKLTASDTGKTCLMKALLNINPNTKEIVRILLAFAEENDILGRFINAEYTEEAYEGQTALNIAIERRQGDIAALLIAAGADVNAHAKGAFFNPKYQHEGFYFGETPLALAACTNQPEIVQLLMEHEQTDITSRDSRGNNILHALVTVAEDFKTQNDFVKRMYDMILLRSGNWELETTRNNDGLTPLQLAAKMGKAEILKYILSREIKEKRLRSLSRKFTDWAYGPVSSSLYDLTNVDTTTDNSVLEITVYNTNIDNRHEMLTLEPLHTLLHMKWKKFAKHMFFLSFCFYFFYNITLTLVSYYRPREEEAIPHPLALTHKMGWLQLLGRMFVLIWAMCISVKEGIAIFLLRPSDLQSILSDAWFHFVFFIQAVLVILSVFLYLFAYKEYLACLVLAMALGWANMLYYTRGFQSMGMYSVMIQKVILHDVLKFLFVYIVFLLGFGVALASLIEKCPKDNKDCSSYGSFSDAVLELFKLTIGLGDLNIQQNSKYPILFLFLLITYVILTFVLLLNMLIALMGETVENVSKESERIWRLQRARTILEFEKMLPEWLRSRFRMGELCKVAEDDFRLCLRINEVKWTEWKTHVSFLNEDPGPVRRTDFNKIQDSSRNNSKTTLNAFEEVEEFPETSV
# assay.details: hTRPV3 HAMA IC50 assay (Hamamatsu FDSS6000 calcium flux, TRex-293 cells)
# applied.conditions: read-out: hTRPV3 HAMA IC50; 2-APB stimulated calcium flux
parameter: IC50 (µM)
Value expressed in µM; do not type the unit.

>  <molecule>
COc1ncc(C(=O)N2CCC(c3ccc(-c4ccccc4C4CC4)cc3CO)C2)nc1C (centres unmarked)

>  <system.name>
hTRPV3 (Homo sapiens (Human), UniProt Q8NET8)

>  <IC50 (µM)>
0.084

$$$$
>  <molecule>
Cc1nc(C(=O)N2CCC(c3ccc(-c4ccccc4C4CC4)cc3CO)C2)ccc1O (centres unmarked)

>  <system.name>
hTRPV3 (Homo sapiens (Human), UniProt Q8NET8)

>  <IC50 (µM)>
0.0103

$$$$
>  <molecule>
COc1cncc(C(=O)N2CCC(c3ccc(-c4ccccc4C4CC4)cc3CO)C2)n1 (centres unmarked)

>  <system.name>
hTRPV3 (Homo sapiens (Human), UniProt Q8NET8)

>  <IC50 (µM)>
0.0996

$$$$
>  <molecule>
Cc1nc(C(=O)N2CCC(c3ccc(-c4ccccc4C4CC4)cc3CO)C2)no1 (centres unmarked)

>  <system.name>
hTRPV3 (Homo sapiens (Human), UniProt Q8NET8)

>  <IC50 (µM)>
0.479

$$$$

Return reported IC50; argument: O=C(c1ncon1)N1CCC(c2ccc(-c3ccccc3C3CC3)cc2CO)C1 (centres unmarked)
0.13
